# System: 429239-143-T-J1-PDC complex spheroid viability;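 note: luminescence signal used as surrogate measure of viable cells; spheroids exposed to compounds for seven days before readout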
# assay-summary: Anticancer human tumor 429239-143-T-J1-PDC patient-derived small cell lung carcinoma cell line growth inhibition [POLQ]
# condition-label: second compound 10 µM; first compound 1 µM; stronger effect = lower value
For each record, check the reported viability, T/C: if it is below 80% write yes, else write no.

Exercise: Identify whether the compound COc1cc2cc(C(=O)CCC(=O)O)sc2cc1OC + COC1C(OC(N)=O)C(O)C(Oc2ccc3c(O)c(NC(=O)c4ccc(O)c(CC=C(C)C)c4)c(=O)oc3c2C)OC1(C)C records viability, T/C below 80%.
Key: no

Exercise: Identify whether the compound CNCc1ccc(-c2[nH]c3cc(F)cc4c3c2CCNC4=O)cc1 + Nc1ccc(C#CCN(C(=O)Cc2ncc(C(F)(F)F)cc2C(F)(F)F)c2ccc(F)cc2)nn1 records viability, T/C below 80%.
Key: no

Exercise: Identify whether the compound Nc1ccn(C2OC(CO)C(O)C2(F)F)c(=O)n1 (stereo unspecified) + COC1C(OC(N)=O)C(O)C(Oc2ccc3c(O)c(NC(=O)c4ccc(O)c(CC=C(C)C)c4)c(=O)oc3c2C)OC1(C)C records viability, T/C below 80%.
Key: yes

Exercise: Identify whether the compound O=c1[nH]cc(F)c(=O)[nH]1 + COC1C(OC(N)=O)C(O)C(Oc2ccc3c(O)c(NC(=O)c4ccc(O)c(CC=C(C)C)c4)c(=O)oc3c2C)OC1(C)C records viability, T/C below 80%.
Key: no

Exercise: Identify whether the compound CC1COCCN1c1cc(-c2ccnn2C)c2ccnc(-c3ccn[nH]3)c2n1 (stereo unspecified) + Cc1cccc(N(C)C(=O)C2C(O)CCN2c2nc(C)cc(C(F)(F)F)c2C#N)c1 records viability, T/C below 80%.
Key: yes

Exercise: Identify whether the compound CC1COCCN1c1cc(C2(S(C)(=N)=O)CC2)nc(-c2ccnc3[nH]ccc23)n1 (stereo unspecified) + Cc1cccc(N(C)C(=O)C2C(O)CCN2c2nc(C)cc(C(F)(F)F)c2C#N)c1 records viability, T/C below 80%.
Key: yes

Exercise: Identify whether the compound COc1cccc(OCCCN)c1-c1cc(Nc2cnc(C#N)cn2)n[nH]1 + Cc1cccc(N(C)C(=O)C2C(O)CCN2c2nc(C)cc(C(F)(F)F)c2C#N)c1 records viability, T/C below 80%.
Key: yes

Exercise: Identify whether the compound CCCS(=O)(=O)Nc1ccc(F)c(C(=O)c2c[nH]c3ncc(-c4ccc(Cl)cc4)cc23)c1F + Cc1cccc(N(C)C(=O)C2C(O)CCN2c2nc(C)cc(C(F)(F)F)c2C#N)c1 records viability, T/C below 80%.
Key: no

Exercise: Identify whether the compound COc1ccc([C@@H](O)c2cc(-c3ncnc4cc(N5CCOCC5)ccc34)c(F)cc2Cl)nn1 + Nc1ccc(C#CCN(C(=O)Cc2ncc(C(F)(F)F)cc2C(F)(F)F)c2ccc(F)cc2)nn1 records viability, T/C below 80%.
Key: no

Exercise: Identify whether the compound Nc1ccn(C2OC(CO)C(O)C2(F)F)c(=O)n1 (stereo unspecified) + Cc1cccc(N(C)C(=O)C2C(O)CCN2c2nc(C)cc(C(F)(F)F)c2C#N)c1 records viability, T/C below 80%.
Key: yes

Exercise: Identify whether the compound COc1cccc2c1C(=O)c1c(O)c3c(c(O)c1C2=O)CC(O)(C(=O)CO)CC3OC1CC(N)C(O)C(C)O1 (stereo unspecified) + COC1C(OC(N)=O)C(O)C(Oc2ccc3c(O)c(NC(=O)c4ccc(O)c(CC=C(C)C)c4)c(=O)oc3c2C)OC1(C)C records viability, T/C below 80%.
Key: yes
